Provenance of the data: the DeepSol protein solubility set

# Assay overview: soluble on expression in E. coli; label from the status in PepcDB or PDB records

Sequence entry	soluble on expression in E. coli
MSLRVQANSRSMGVLEDKARARTFYKYLSKVYDRVNTFIWTEEMRAEALSMLDIDAEDRVLDVGCGTGFGTEGLLKHTEHVYGLDQSPHQLTKAWEKFGKHDPVAFHFGDAERLPFKPDSFDVVWSSGSIEYWPHPVQGLRELRRVAKPGSQVLVVGPDYPASTVFRKLADAIMLFYDEDEADRMFREAGYEEIQHRVLRKEPNSPPAIVTVARAPAADDEGHHHHHH	soluble
MAHHHHHHMDRQVINLEEILPFSYTRDVELVPMYCFEVKKEVAKDALNIMKDYINNQLYDKYNHLKRCRKCTDSVQILIGACNHIPFELSQKLIEKMKQENNNDEFNDIIITKIMVSKYAPITRKQYIEWSTYWPLYFRKPDKDILILTKEEINKYIKLLYISIDIGKQFGTCNSGCIITYNDEIIASSGDNIKNHPLHHAPMLAIEQVSYKLRHIWLNKQTEKNNLQKKMKIIHKQQINNRDSLNDHKHENNKSNHNILIDHIPNDQYLCTNFFAFLSHEPCYMCAMALLHSRIKCVIFDKENKNNGALSSQEKLHCIKNLNHHFKVFKTIRG	not soluble
STRFLEKRHKKKKATNKERILSYKPIHAIEQENSFRSSRCSNQTVEVSAVEDSRSALVGFFESNEPSESVTLKGKRERQLLASKTLISQLKEENCRLKERLNEVKDQLELKEKIALVQQENNDLEAEVLEWKAKFYESESEKERILASRSRPKDGYEIVQESLAQQPGTTSFYDYKFRQLVHKLTRMNAIHSKHNDKEYHKCDIVNESKDRSITFELFIDEEQEEIEYVPVQLNGVSQKLPSYLQDNISFDVQNAPIFFTKIMHSLFSK	soluble
MKLVRPQKISDQVLSVLEERIAEGVYAEGGKIPPERVLAEEFGVSRPSVRSALNVLVARQVLEARQGDGYYVSVKPQQDFLQSWQELLGKHSNWEQDVFDFSCHIEGCMAALAAERRTDADLKRIGFWLEKFEEACESGNLEHQSEADVSFHQTIADAAHNLLFSHLSGGLLKMLYRQTRSSLIYLNQEEDPRPKLMAQHRVLYEAISNRRPGEASEAAKAHLNYVASSILKDREYQSRNRHADTLAQNDLKRVQDWAV	soluble
MKQMNVVLIGGGTGLSVLARGLREFPIDITAIVTVADNGGSTGKIRDVMDIPAPGDIRNVIAALSDSESILTQLFQYRFGENQVDGHSLGNLVIAGMTNITNDFGHAIKELSKVLNIKGQVIPSTNASVQLNAVMEDGEIVHGETNIPKTHKKIDRVFLEPSDVEPMNEAIEALEQADLIVLGPGSLYTSVISNLCVKGISEALLRTSAPKLYVSNVMTQPGETDNYDVKEHIDALTRQVGEPFIDFVICSSESYSKDVLQRYEEKNSKPVAVHKEQLKDSGIRVLTASNLVEISNEHYVRHNTKVLSKMIYELALELTSTIRFTPSDKKKMAGDPLEHHHHHH	soluble
MAHHHHHHMLTSTAYGMELQARAIAPFYHSSNNSSSTHRFVAGTACFAGGNVIRLLTFQEESQLLECTATWSHEEEIFGLWSSPSVAGPSLLAVGASSYCRIFRVSDDVSGELEPVVNFNAAAAQVLWDLEGLQNEVKLISEDSLRIYSLTEGKMGEEIGRFRVDGCAELRCAALDPHHSSVCLAAGEGIGIAVIDTRRKGPIVMPNTTTLHGLGMIQSIDFSNAREGLFMTAGTDGVIMWHDFRMDGEKSVVERRGYLDAHDHCVQRSLFNPFHDELLISCGSDHTLKLWDTSKKGADGECAVCVSKLSDFAESVVACCWSNSNPWVFAGLSYNGRVLVDSVPEECKMQFIGKEG	not soluble
DGTVLPGPVPVTVAVRAPGDENDEDASGEASTPNAVRPRTSCRRDRFVAGIVRGTFHPDLYMCSQDCITFKGKRIGRSKFEKLGNSSMAKWHRSIRVIREDGELEPLGEWLTRHGLPVLKGKQRISRKRTIRI	not soluble
MKMGENVTEYFEFAGVKNTENTLKYAIERAKLGISDIVVASSYGETAKMLFDMLEKENLNVNVVVVTYHQGFSGPDVVAMPENVKKDLEKRGATVFSGTHALSGVERGISKRFGGYGPVEVIAQTLKTLGQGVKVCYEVTVMAADAGLVSTKKEIIAIGGSSRGADSAVVIRPSNMNTFFDIELRELICMPKNKKKHEMAGDPLEHHHHHH	soluble
MKKQVVEVLVEGGKATPGPPLGPAIGPLGLNVKQVVDKINEATKEFAGMQVPVKIIVDPVTKQFEIEVGVPPTSQLIKKELGLEKGSGEPKHNIVGNLTMEQVIKIAKMKRSQMLALTLKAAAKEVIGTALSMGVTVEGKDPRIVQREIDEGVYDELFEKAEKE	soluble
MGSDKIHHHHHHMAFNIDGSGNKSGVRSNMLSENNILKYGSNFSKANASSLNNKINSLNYTVEYINNELMGIFFRQGLKFGIFKAVEDFRPTISELITILGYPNEEFVEKYIKTAVSLNLLNLNEEERLELNSDFIYSSIHPEYDKIISDHVSRYDFMSGLVQYAFIGYDHPEILLNFKKDADIWDMMLNTKYMKTCREVISEYLDIKNGDTILEVGCGSRSPLYFASKVAPNGEYVGVDISKKLIRVAQGRLKRSGIECAKLKALDFSETIAKNKHDYVLCIHTLSYADSLKLFLKKMMGSLRKGGKLVIMEEFFTENINTNAELFEFYNHLNKYFKNYVSKTEILKELELIGIDYKYELLGDNCIVVERI	not soluble
SNASAFTEGTDYMVLEKPIPNADKTLIKVFSYACPFCYKYDKAVTGPVSDKVADLVTFTPFHLETKGEYGKQASEVFAVLIAKDKAAGISLFDAKSQFKKAKFAWYAAYHDKKERWSDGKDPAAFIKTGLDAAGMSQADFEAALKDPAVQETLEKWKAAYDVAKIQGVPAYVVNGKYLIYTKNIKSIDSMAELVRELATKK	soluble

----------
# Assay overview: soluble on expression in E. coli; label from the status in PepcDB or PDB records
Recorded metric: soluble on expression in E. coli

Sequence entry	Recorded metric	Result
MSLAAVQVVGSWPSVQPREAPREAIPERGNGFRLLSARLCALRPDDSSSARTEIHLLFDQLISENYSEGSGVAPEDVSALLVQACRLVPLNQNHLVSKVSQLIHHLLNRLQVIVDEQHLDFLLAYTISAIHQCSSWTHREILQALAALVYCNGSKCQKYLPELLGNTGLLMKLSDLAQSDPEVRRAAVHCMANLCLSVPGQPYLEEPYQNVCFQAFLTILQSPKSSDMDDITFCMLLQNALKGIQSLLNGGRMKLTQTDELGALLAVLKKFMFHGLPGLNIEMPTVLYPTPLPQYDGRTPIKEGHHHHHH	soluble on expression in E. coli	not soluble
MSLTKIVLITGANKGIGFETAKQIGKNGWTLLISTRNEERGKNAVHQLQQDGITAEWLQIDLNDIASIHKAARYVEERYPKLDGLINNAGISGDMQKNPLELKSSELEQLAKVNFLGNFEMIKSFTPILSRNHGRILNVTIPATPIGSFNPLGYLASKASLNSMIKSFAMYYKKHEIPVEIFGVLPGGISTDLNQHQSGLLIRTVQEGGESIAKVMMDRHNHQGKLLMRMGLTQLARNFVFRRHDEGHHHHHH	soluble on expression in E. coli	not soluble
MGSDKIHHHHHHMKTLCTHSLPKEKMPYLLRSGEGERYLFGRQVATVMANGRSTGDLFEIVLLSGGKGDAFPLHVHKDTHEGILVLDGKLELTLDGERYLLISGDYANIPAGTPHSYRMQSHRTRLVSYTMKGNVAHLYSVIGNPYDHAEHPPYASEEVSNERFAEAAAVADIVFLDEAKPACSAKLAELTELPDGAVPYVLESGEGDRLLTGDQLHRIVAAQKNTDGQFIVVSSEGPKGDRIVDHYHEYHTETFYCLEGQMTMWTDGQEIQLNPGDFLHVPANTVHSYRLDSHYTKMVGVLVPGLFEPFFRTLGDPYEGHIFPCEPQALRFDRILQNIEALDLKVMKP	soluble on expression in E. coli	not soluble

----------
# Assay overview: soluble on expression in E. coli; label from the status in PepcDB or PDB records
Recorded metric: soluble on expression in E. coli

Sequence entry	Result
VLLAIDVRNTHTVVGLLSGMKEHAKVVQQWRIRTESEVTADELALTIDGLIGEDSERLTGTAALSTVPSVLHEVRIMLDQYWPSVPHVLIEPGVRTGIPLLVDNPKEVGADRIVNCLAAYDRFRKAAIVVDFGSSICVDVVSAKGEFLGGAIAPGVQVSSDAAAARSAALRRVELARPRSVVGKNTVECMQAGAVFGFAGLVDGLVGRIREDVSGFSVDHDVAIVATGHTAPLLLPELHTVDHYDQHLTLQGLRLVFERNLEVQRGRLKTAR	soluble
MKILLIEDNQRTQEWVTQGLSEAGYVIDAVSDGRDGLYLALKDDYALIILDIMLPGMDGWQILQTLRTAKQTPVICLTARDSVDDRVRGLDSGANDYLVKPFSFSELLARVRAQLRQHHALNSTLEISGLRMDSVSHSVSRDNISITLTRKEFQLLWLLASRAGEIIPRTVIASEIWGINFDSDTNTVDVAIRRLRAKVDDPFPEKLIATIRGMGYSFVAVKK	soluble
